# subject_of_test: human CYP11B1 (Homo sapiens, UniProt P15538)
# Sequence (P15538 25-503): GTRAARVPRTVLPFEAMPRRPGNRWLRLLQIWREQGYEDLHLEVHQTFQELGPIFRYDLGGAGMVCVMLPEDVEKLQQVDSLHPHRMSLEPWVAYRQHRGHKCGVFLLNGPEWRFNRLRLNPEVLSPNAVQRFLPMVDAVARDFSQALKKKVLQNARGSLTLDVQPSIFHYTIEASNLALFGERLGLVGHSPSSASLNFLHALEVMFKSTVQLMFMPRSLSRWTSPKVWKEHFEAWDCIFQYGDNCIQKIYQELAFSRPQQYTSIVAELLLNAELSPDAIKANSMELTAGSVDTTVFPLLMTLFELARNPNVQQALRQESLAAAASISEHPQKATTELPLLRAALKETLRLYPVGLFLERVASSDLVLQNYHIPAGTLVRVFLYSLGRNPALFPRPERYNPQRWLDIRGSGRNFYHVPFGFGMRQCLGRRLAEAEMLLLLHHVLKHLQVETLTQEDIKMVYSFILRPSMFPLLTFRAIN
# experimental_details: IC50 vs CYP11B1 by cortisol synthesis in V79 cells
# run_conditions: V79 cells expressing human CYP11B1, 1500 nM RSS, cortisol HTRF; test concentrations 0.5-10000 nM
# Method: Determination of IC50 vs CYP11B1/CYP11B2 by Measurement of Cortisol/Aldosterone Synthesis This assay was performed in a standard 384-well plate design using cultured V79 cells stably expressing human CYP11B1 or human CYP11B2. […] Cortisol/Aldosterone production of cell culture supernatant was determined by Cortisol/Aldosterone HTRF kit after for about 15 hours incubation at RT (protect from light). […] Data are analyzed using Assay Data Analyzer. […]
Reported pIC50 by item:
Kindly note that pIC50 refers to -log10 of the concentration in mol/L and answer with the value alone.

{"compound": "CN1CCN(c2ncc(S(=O)(=O)N3CCN(Cc4cncn4CCOc4ccc(Cl)cc4)CC3)s2)CC1", "pIC50": 5.80}
{"compound": "C[C@H](c1ccc(F)cc1)n1cncc1CN1CCN(S(=O)(=O)c2cnc(N3CC[C@@H]4OCCN[C@H]4C3)s2)CC1 [Compound 14]", "pIC50": 5.98}
{"compound": "C[C@H](c1ccc(F)cc1)n1cncc1CN1CCN(S(=O)(=O)c2cnc(N3CCN4C[C@H](O)C[C@H]4C3)s2)CC1", "pIC50": 5.70}

**Q:** Could you share which pIC50 value was measured for C[C@H](c1ccc(F)cc1)n1cncc1CN1CCN(S(=O)(=O)c2cnc(N3CC[C@@H](N)[C@H](F)C3)s2)CC1 [Compound 11] ?
**A:** 5.96

**Q:** Could you share which pIC50 value was measured for C[C@H](c1ccc(F)cc1)n1cncc1CN1CCN(S(=O)(=O)c2cncc(N3CCNCC3)c2)CC1 ?
**A:** 5.84

src = patent US20140005103A1
